Test system: Escherichia coli
Assay: Antibacterial activity against Escherichia coli assessed as reduction in bacterial cell viability incubated for 24 hrs by nutrient agar plate method
Type: functional, organism-based
pIC50: −log10 of the molar value. Bridge positions count the residues as written; N and C are the ends. Square brackets hold non-standard residues; d marks the D form. Peptide text beside a SMILES is read from it. Dab = NCC[C@H](N)C(=O)O; Dap = NC[C@H](N)C(=O)O
Consider the following molecules and their measured pIC50 readings.
MEASURE: pIC50

- MOLECULE: "CC1(C)S[C@@H]2[C@H](NC(=O)[C@H](N)c3ccccc3)C(=O)N2[C@H]1C(=O)O"
  MEASURED_NUMBER: 5.82
- MOLECULE: "CC[C@H](C)[C@@H]1NC(=O)[C@H](CCCNC(=N)N)NC(=O)[C@H](Cc2ccccc2)NC(=O)[C@H](CCCCN)NC(=O)[C@H](Cc2ccccc2)NC(=O)[C@H](CCCNC(=N)N)NC(=O)[C@@H](N)CNC(=O)CC[C@@H](C(N)=O)NC(=O)[C@H]([C@@H](C)CC)NC(=O)[C@H](C(C)C)NC1=O (H-[Dap]RFKFRIVIE-NH2; lactam 1-10)"
  MEASURED_NUMBER: 4.44
- MOLECULE: "CC[C@H](C)[C@@H]1NC(=O)[C@H](CCCNC(=N)N)NC(=O)[C@H](Cc2ccccc2)NC(=O)[C@H](CCCCN)NC(=O)[C@H](Cc2ccccc2)NC(=O)[C@H](CCCNC(=N)N)NC(=O)[C@@H](N)CCC(=O)NCC[C@@H](C(N)=O)NC(=O)[C@H]([C@@H](C)CC)NC(=O)[C@H](C(C)C)NC1=O (H-ERFKFRIVI[Dab]-NH2; lactam 1-10)"
  MEASURED_NUMBER: 5.07
- MOLECULE: "CC[C@H](C)[C@@H]1NC(=O)[C@H](CCCNC(=N)N)NC(=O)[C@H](Cc2ccccc2)NC(=O)[C@H](CCCCN)NC(=O)[C@H](Cc2ccccc2)NC(=O)[C@H](CCCNC(=N)N)NC(=O)[C@@H](N)CCC(=O)NC[C@@H](C(N)=O)NC(=O)[C@H]([C@@H](C)CC)NC(=O)[C@H](C(C)C)NC1=O (H-ERFKFRIVI[Dap]-NH2; lactam 1-10)"
  MEASURED_NUMBER: 4.38
- MOLECULE: "CC[C@H](C)[C@@H]1NC(=O)[C@H](CCCNC(=N)N)NC(=O)[C@H](Cc2ccccc2)NC(=O)[C@H](CCCCN)NC(=O)[C@H](Cc2ccccc2)NC(=O)[C@H](CCCNC(=N)N)NC(=O)[C@@H](N)CCNC(=O)CC[C@@H](C(N)=O)NC(=O)[C@H]([C@@H](C)CC)NC(=O)[C@H](C(C)C)NC1=O (H-[Dab]RFKFRIVIE-NH2; lactam 1-10)"
  MEASURED_NUMBER: 4.97
- MOLECULE: "CC[C@H](C)[C@@H]1NC(=O)[C@H](CCCNC(=N)N)NC(=O)[C@H](Cc2ccccc2)NC(=O)[C@H](CCCCN)NC(=O)[C@H](Cc2ccccc2)NC(=O)[C@H](CCCNC(=N)N)NC(=O)[C@@H](N)CSSC[C@@H](C(N)=O)NC(=O)[C@H]([C@@H](C)CC)NC(=O)[C@H](C(C)C)NC1=O (H-CRFKFRIVIC-NH2; disulfide 1-10)"
  MEASURED_NUMBER: 4.49
